The measurements presented in this section are drawn from the supplement of paper PMC11417369.

Tested on: PfHDP1 homeodomain (GST-tagged)
Assay: gcPBM binding intensity (ln(normalized median fluorescence intensity)); higher = stronger DNA binding
In all, about 25,000 sequences were measured (“ln(normalized median fluorescence intensity)”: median about 6.7, highest 2% from about 10 on). Only a selection was taken, and the highest values are over-represented in it overall.
Decide by gcPBM binding intensity (ln): equal to or exceeding 10 means 1.0, less means 0.0.

# example entries with known answers
Say whether TAATATTATTATTTTACACACTTTTTTCCTTTTATC [CACACA_site2457] shows gcPBM binding intensity (ln) of 10 or more.
0.0

Say whether ATTTATATGCACCATTGTACGTTTTATAAAGTTTGG [XGTACX_site3755] shows gcPBM binding intensity (ln) of 10 or more.
1.0

Say whether TATATTTATATATTAGTGCACTTTTTGTTAATTTTT shows gcPBM binding intensity (ln) of 10 or more.
1.0

Say whether ATTGTGCACTTATATGCACACATTTTAGTTTTTTTT [CACACA_site2028] shows gcPBM binding intensity (ln) of 10 or more.
1.0

Say whether TATTAATATATAGTAGTGCAATAAAGATATACTGAA shows gcPBM binding intensity (ln) of 10 or more.
0.0

Say whether ATTACACATATAGTAGTGCAATAACTCCAAAAAAAA shows gcPBM binding intensity (ln) of 10 or more.
0.0

***
Say whether GTCCTCATCCACTATGCACACAAAAAAGAAATACAC [CACACA_site9131] shows gcPBM binding intensity (ln) of 10 or more.
1.0

Say whether TATATGTAGATTAAACGTACTTACAACGGAATTATC [XGTACX_site3036] shows gcPBM binding intensity (ln) of 10 or more.
0.0

Say whether TTTTTTAATATATTATTATAAATATTTTTTATGTGT [GTGCAC_negctrl_site712] shows gcPBM binding intensity (ln) of 10 or more.
0.0

Say whether TAATATATATAAACATGTACAAATCAAAAACAAAAG [XGTACX_site4076] shows gcPBM binding intensity (ln) of 10 or more.
0.0

Say whether TATATATATTAGTGTGCACACTTTTTATTTTTATCC [CACACA_site8506] shows gcPBM binding intensity (ln) of 10 or more.
1.0

Say whether ATATCGTTATTTTTATGTACTAAAATATTTAATTAT [XGTACX_site3516] shows gcPBM binding intensity (ln) of 10 or more.
0.0

Say whether TATATATATAATATTGCACACAAAATTAAAAGTAAA [CACACA_site7889] shows gcPBM binding intensity (ln) of 10 or more.
0.0

###

Test system: PfHDP1 homeodomain (GST-tagged)
Assay: gcPBM binding intensity (ln(normalized median fluorescence intensity)); higher = stronger DNA binding
The full ranking holds about 25,000 sequences; the median of “ln(normalized median fluorescence intensity)” is about 6.7, and the highest 2% start at about 10. The list comes from a sample in which the highest values are over-represented; it also holds close analogues and randomly drawn sequences.
// gcPBM binding intensity (ln) lookup, one value per entry
A bare number is all that is needed in reply.

The recorded gcPBM binding intensity (ln) for entry TCATTAAATGTTTAGGTGCATACTTTAATTTTTAAT [GTGCAC_site9906] equals 9.31

The recorded gcPBM binding intensity (ln) for entry AGAATAAATATGCACACATGCATATATTTTTACACT [TGCATGCA_site893] equals 10.3

The recorded gcPBM binding intensity (ln) for entry TAAATTATAAATTGCACACATATTTTTATATTTATA [CACACA_site2976] equals 10.2

The recorded gcPBM binding intensity (ln) for entry CCCATGCATTTTTGCACACACATATATTTATAAATA [CACACA_site6785] equals 10.7

The recorded gcPBM binding intensity (ln) for entry CATATTTGTATATGCACACATAAATTTTTCCATTTC [CACACA_site3467] equals 10.2

The recorded gcPBM binding intensity (ln) for entry TATGTGTATTTATTTGCATGTTGGTTGTATTTTTTC [TGCATGCA_site479] equals 6.94

The recorded gcPBM binding intensity (ln) for entry TATATATATATAATTGCACACATCAAGTTTGATGTT [CACACA_site1288] equals 9.99

The recorded gcPBM binding intensity (ln) for entry TTTTAAATAATACATACATGCATATATACACATATA [TGCATGCA_site8] equals 6.58

The recorded gcPBM binding intensity (ln) for entry TACCCATGCATTTTTGCACACACATATATATATAAA [CACACA_site1429] equals 10.7

###

Tested on: PfHDP1 homeodomain (GST-tagged)
Assay: gcPBM binding intensity (ln(normalized median fluorescence intensity)); higher = stronger DNA binding
Over roughly 25,000 sequences, “ln(normalized median fluorescence intensity)” has its median near 6.7; the highest 2% begin near 10. The full list was thinned out, with the highest values kept by preference.
// gcPBM binding intensity (ln) lookup, one value per entry

These recorded examples may help you get a feel for the data.
The recorded gcPBM binding intensity (ln) for entry CTTTTATTGCTCTATATGCACACCTTAATTCTTCAT [CACACA_site2195] equals 10.5

The recorded gcPBM binding intensity (ln) for entry TCATATAATATTTATATGCACACTTTTCTATATATA [CACACA_site4075] equals 8.75

The recorded gcPBM binding intensity (ln) for entry TTTTTATATAACCTTCTTAATTCTTTTTTTTTTTTT [XGTACX_negctrl_site591] equals 6.16

The recorded gcPBM binding intensity (ln) for entry TTCTCTATAAATGCTGCACACACATTTAATTATTTA [CACACA_site8828] equals 8.06

***
The recorded gcPBM binding intensity (ln) for entry TTTATTGCTCTATATGCACACCTTAATTCTTCATTT [CACACA_site8682] equals 11.1

###

// gcPBM binding intensity (ln) lookup, one value per entry
Tested on: PfHDP1 homeodomain (GST-tagged)
Assay: gcPBM binding intensity (ln(normalized median fluorescence intensity)); higher = stronger DNA binding
The full ranking holds about 25,000 sequences; the median of “ln(normalized median fluorescence intensity)” is about 6.7, and the highest 2% start at about 10. This excerpt belongs to a sample that is enriched for the highest values.
A bare number is all that is needed in reply.

These recorded examples may help you get a feel for the data.
The recorded gcPBM binding intensity (ln) for entry TACATAAACATTTATACACACATTATAAATACATAT [CACACA_site4386] equals 6.74

The recorded gcPBM binding intensity (ln) for entry GAAATTAAAAAATTTATGCACACTTTAAAAAAAAAA [CACACA_site3769] equals 9.28

The recorded gcPBM binding intensity (ln) for entry TATATATATATATGTGCACACATAAAGATATTATTT [CACACA_site3734] equals 10.6

***
The recorded gcPBM binding intensity (ln) for entry TTTTTTATTCTTTTTGCACACAGGAAATTTACAGAT [CACACA_site1090] equals 10.6

The recorded gcPBM binding intensity (ln) for entry AATCCACTTTTTTATGTTATACAATATAAATTAAAT [XGTACX_negctrl_site446] equals 6.71

###

System: PfHDP1 homeodomain (GST-tagged)
Experiment: gcPBM binding intensity (ln(normalized median fluorescence intensity)); higher = stronger DNA binding
In all, about 25,000 sequences were measured (“ln(normalized median fluorescence intensity)”: median about 6.7, highest 2% from about 10 on). Only a selection was taken, and the highest values are over-represented in it overall.
Note that class boundaries on gcPBM binding intensity (ln) are lower: < 7; middle: ≥ 7 and < 10; upper: ≥ 10

# example entries with known answers
Field: class (gcPBM binding intensity (ln)) — entry: TTATGTTATATAAAAAGTACAAATTTTTTTTAATTA [XGTACX_site3435]
lower

Field: class (gcPBM binding intensity (ln)) — entry: TATGAAATATCGTGCACACACGAATAATATAAGAAT [CACACA_site4842]
middle

Field: class (gcPBM binding intensity (ln)) — entry: AATATAACTTTTTGCACACTTAATTTTTTTTTTTAA [CACACA_site3365]
upper

Field: class (gcPBM binding intensity (ln)) — entry: GGAGGTTGTTATAAAAGTACAAAAAGTTGCAATTTT [XGTACX_site7351]
upper

Field: class (gcPBM binding intensity (ln)) — entry: TAAAACTTATACAAATGTACAAATATATATATATAT [XGTACX_site4661]
middle

Field: class (gcPBM binding intensity (ln)) — entry: TATAACAAGTTATAAAGTACAAATGTTGAATTTTAT [XGTACX_site4673]
lower

***
Field: class (gcPBM binding intensity (ln)) — entry: TATATATTAAACTTTGCACACATAATTTAACTACAA [CACACA_site3440]
upper

Field: class (gcPBM binding intensity (ln)) — entry: AAAAAAAAAAGACATGCATACGCTAATTTTTAGTTG [TGCATGCA_site300]
lower

Field: class (gcPBM binding intensity (ln)) — entry: GTTTACTAATATTGCACACGAATATGAAAAAGAGAA [CACACA_site2897]
upper

Field: class (gcPBM binding intensity (ln)) — entry: ATCATATTTTTATGTGTGCACTTTTTTTTTTTTTTT [GTGCAC_site9555]
middle

Field: class (gcPBM binding intensity (ln)) — entry: TTTTTTTTTTTTTTTGCACACTATATTTAATATAAG [CACACA_site2444]
middle
